Experiment: Aqueous solubility of the compound
Assay type: physicochemical
Conditions: buffer
Assign fulfilled to entries whose Solubility meets or exceeds 100 µg/mL; assign not fulfilled to the rest.

A selection of reference data follows.
Nc1c(C(=O)c2cccc(C#CCN3CCCCC3)c2)cnn1-c1ccc(F)cc1 = fulfilled
CC(C)(O)CCc1cccc(C(=O)c2cnn(-c3ccc(F)cc3)c2N)c1 = not fulfilled
CN1CCN(CCc2cccc(C(=O)c3cnn(-c4ccc(F)cc4)c3N)c2)CC1 = fulfilled
Nc1c(C(=O)c2cccc(CCC3(O)CCCC3)c2)cnn1-c1ccc(F)cc1 = not fulfilled
NCCc1cccc(C(=O)c2cnn(-c3ccc(F)cc3)c2N)c1 = fulfilled

Is the recorded value of Solubility equal to or greater than 100 µg/mL for this molecule? `CN1CCN(c2cccc(C(=O)c3cnn(-c4ccc(F)cc4)c3N)c2)CC1`
fulfilled

Another molecule to check: `Nc1c(C(=O)c2cccc(-c3ccc[n+]([O-])c3)c2)cnn1-c1ccc(F)cc1F`
fulfilled

Another molecule to check: `Nc1c(C(=O)c2cccc(-c3ccncc3)c2)cnn1-c1ccc(F)cc1F`
fulfilled

Another molecule to check: `Nc1c(C(=O)c2cccc(-c3cccnc3)c2)cnn1-c1ccc(F)cc1F`
fulfilled

Another molecule to check: `Nc1c(C(=O)c2cccc(-c3cccnc3)c2)cnn1-c1ccc(F)cc1`
fulfilled

Another molecule to check: `Nc1c(C(=O)c2cccc(CCS(N)(=O)=O)c2)cnn1-c1ccc(F)cc1`
not fulfilled

Another molecule to check: `Nc1c(C(=O)c2cccc(OC[C@H](O)CO)c2)cnn1-c1ccc(F)cc1`
not fulfilled

Another molecule to check: `Nc1c(C(=O)c2cccc(OC[C@@H](O)CO)c2)cnn1-c1ccc(F)cc1`
not fulfilled

Another molecule to check: Nc1c(C(=O)c2cccc(C(O)CO)c2)cnn1-c1ccc(F)cc1 (stereo unspecified)
fulfilled

Another molecule to check: `CS(=O)(=O)CCc1cccc(C(=O)c2cnn(-c3ccc(F)cc3)c2N)c1`
fulfilled

Another molecule to check: `Nc1c(C(=O)c2cccc(OCCN3CCOCC3)c2)cnn1-c1ccc(F)cc1`
fulfilled
